- Test system: MDA-MB-231 breast
- Assay Method Text: NCI-60 one-dose screen, 48 h (100 = growth as untreated, 0 = no growth, -100 = all killed)
- Details: 10 µM
About 83,000 compounds went through this panel and 20% of them were active in at least one assay; those are over-represented in the sample as a whole.
Readout Type: growth (%)
One number for each entry, in %.

Example entries begin here.
Return reported growth; argument: "CCN(CC)CCN1CC(=O)Nc2cc(Cl)ccc21"
116

What growth value was documented for this compound, "Cc1ccc(-c2n[nH]c(=O)c3noc(-c4ccc(C)cc4)c23)cc1" ?
58.1

Return reported growth; argument: "c1ccc(CNc2ncnc3scc(-c4cccs4)c23)nc1"
59.9

Can you share its growth? I mean this compound: "COC(=O)c1ccc(=O)oc1"
98.1

Looking for the measured growth of "CC(C)(C#N)Nc1ccccc1" , can you help?
100

// growth lookup, key: "CN1CCCNc2c(c(=O)c2=O)NCCCN(C)CCCNc2c(c(=O)c2=O)NCCCN(C)CCCNc2c(c(=O)c2=O)NCCCN(C)CCCNc2c(c(=O)c2=O)NCCCN(C)CCCNc2c(c(=O)c2=O)NCCCN(C)CCCNc2c(c(=O)c2=O)NCCCN(C)CCCNc2c(c(=O)c2=O)NCCC1"
46.5

Report growth for every entry below.
1. O=[N+]([O-])c1cccc(-c2ncc(-c3ccc(Cl)cc3Cl)[nH]2)c1
2. O=C(Nc1cccc(Cl)c1)Nc1nccs1
3. Cc1cccc2c(NCCN(C)C)c3cccc(C(=O)NCCN(C)C)c3nc12
4. Clc1ccc2c(NCCCNc3nccc(Nc4ccc(Br)cc4)n3)ccnc2c1

1: 67.7; 2: 93.2; 3: 5.41; 4: -90

Recorded values, source PubChem BioAssay (NCI).
